- Target entity: UniProt P55789
- Sequence (P55789 whole entry): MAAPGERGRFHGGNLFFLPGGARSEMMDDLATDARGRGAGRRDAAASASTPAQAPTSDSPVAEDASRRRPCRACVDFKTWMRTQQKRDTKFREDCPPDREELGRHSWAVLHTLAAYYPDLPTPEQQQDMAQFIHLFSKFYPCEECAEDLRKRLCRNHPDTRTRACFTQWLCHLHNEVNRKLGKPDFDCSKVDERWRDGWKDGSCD
- Assay method text: inhibitors of human ALR sulfhydryl oxidase, dose response, biochemical, H2O2 detection, luminescence, cherry-pick (AID 493248)
Active and inactive are the calls of the source. No stated cut-off is given here; in the data, actives have a measured AC50 and inactives only a lower limit.
Value kind: AC50

| Molecule | Target entity | Value kind | Obs value |
| --- | --- | --- | --- |
| CCn1c(/C=C/c2ccc(O)cc2)nc2ccccc2c1=O | UniProt P55789 | AC50 | 3350 nM (active) |
| COc1ccc(/C=N/Nc2ccc(C(=O)O)cc2)cc1Br | UniProt P55789 | AC50 | 837 nM (active) |
| Nc1ccc(-c2nc3ccc(C(=O)O)cc3s2)cc1 | UniProt P55789 | AC50 | 839 nM (active) |
| CC(=O)Nc1ccc(Nc2nc3ccccc3nc2NS(=O)(=O)c2ccccc2)cc1 | UniProt P55789 | AC50 | 130 nM (active) |
| CCN(CC)c1ccc(NC(=O)c2cccnc2)cc1 | UniProt P55789 | AC50 | 327 nM (active) |
| Clc1ccc2nc(N3CCCCC3)[nH]c2c1 | UniProt P55789 | AC50 | 4040 nM (active) |
| O=C(NCC(c1ccco1)N1CCc2ccccc21)c1ccccc1 (configuration not stated) | UniProt P55789 | AC50 | 1210 nM (active) |
| O=C(Nc1ccccc1N1CCCC1)c1ccc(N2CCCC2=O)cc1 | UniProt P55789 | AC50 | 1550 nM (active) |
| O=C(O)C(c1ccccc1)N1C(=O)/C(=C\c2ccc(O)c(O)c2)SC1=S (configuration not stated) | UniProt P55789 | AC50 | 208 nM (active) |
| O=C(NCC(c1cccnc1)N1CCN(c2ccc(F)cc2)CC1)c1ccco1 (configuration not stated) | UniProt P55789 | AC50 | 4660 nM (active) |
| O=C(NCc1ccccn1)c1ccc2c(c1)N(Cc1ccccc1)CCS2 | UniProt P55789 | AC50 | 511 nM (active) |
| CC(=O)Nc1ccc(S(=O)(=O)Nc2ccc(Nc3ccccc3)cc2)cc1 | UniProt P55789 | AC50 | 268 nM (active) |
